Measured Cumulative biogas production, listed per entry for reference.
system: "in vitro" rumen fluid culture; test: Biogas production in "in vitro" rumen fluid culture (pressure meter); assay type: cell-based, calves; parameters: unit not given here; details: Exp 1; 72 h incubation

{"Mol Smiles": "C[C@@H]1O[C@@H](O[C@H]2[C@H](Oc3cc(O)c4c(c3)O[C@H](c3ccc(O)c(O)c3)CC4=O)O[C@H](CO)[C@@H](O)[C@@H]2O)[C@H](O)[C@H](O)[C@H]1O", "Cumulative biogas production": 307.80}
{"Mol Smiles": "C[C@@H]1O[C@@H](O[C@H]2[C@H](Oc3cc(O)c4c(c3)O[C@H](c3ccc(O)cc3)CC4=O)O[C@H](CO)[C@@H](O)[C@@H]2O)[C@H](O)[C@H](O)[C@H]1O", "Cumulative biogas production": 290.91}
{"Mol Smiles": "COc1ccc([C@@H]2CC(=O)c3c(O)cc(O[C@@H]4O[C@H](CO)[C@@H](O)[C@H](O)[C@H]4O[C@@H]4O[C@@H](C)[C@H](O)[C@@H](O)[C@H]4O)cc3O2)cc1O", "Cumulative biogas production": 275.06}
{"Mol Smiles": "C[C@@H]1O[C@@H](OC[C@H]2O[C@@H](Oc3cc(O)c4c(c3)O[C@H](c3ccc(O)cc3)CC4=O)[C@H](O)[C@@H](O)[C@@H]2O)[C@H](O)[C@H](O)[C@H]1O", "Cumulative biogas production": 278.66}
{"Mol Smiles": "COc1ccc([C@@H]2CC(=O)c3c(O)cc(O[C@@H]4O[C@H](CO)[C@@H](O)[C@H](O)[C@H]4O[C@@H]4O[C@@H](C)[C@H](O)[C@@H](O)[C@H]4O)cc3O2)cc1", "Cumulative biogas production": 284.28}
{"Mol Smiles": "COc1ccc([C@@H]2CC(=O)c3c(O)cc(O[C@@H]4O[C@H](CO[C@@H]5O[C@@H](C)[C@H](O)[C@@H](O)[C@H]5O)[C@@H](O)[C@H](O)[C@H]4O)cc3O2)cc1O", "Cumulative biogas production": 282.84}

###

test system: "in vitro" ruminal fluid cultures; test: Ammonia (N-NH3) concentration in "in vitro" ruminal fluid cultures; type: cell-based, calves; details: 12 h
Listing: N-NH3 concentration of selected compounds

{"Compound": "C[C@@H]1O[C@@H](O[C@H]2[C@H](Oc3cc(O)c4c(c3)O[C@H](c3ccc(O)cc3)CC4=O)O[C@H](CO)[C@@H](O)[C@@H]2O)[C@H](O)[C@H](O)[C@H]1O [Naringin, naringin]", "N-NH3 concentration / mg/L": 172.47}
{"Compound": "COc1ccc([C@@H]2CC(=O)c3c(O)cc(O[C@@H]4O[C@H](CO[C@@H]5O[C@@H](C)[C@H](O)[C@@H](O)[C@H]5O)[C@@H](O)[C@H](O)[C@H]4O)cc3O2)cc1O [Hesperidin, hesperidin]", "N-NH3 concentration / mg/L": 187.36}
{"Compound": "C[C@@H]1O[C@@H](O[C@H]2[C@H](Oc3cc(O)c4c(c3)O[C@H](c3ccc(O)c(O)c3)CC4=O)O[C@H](CO)[C@@H](O)[C@@H]2O)[C@H](O)[C@H](O)[C@H]1O [Neoeriocitrin]", "N-NH3 concentration / mg/L": 186.19}
{"Compound": "COc1ccc([C@@H]2CC(=O)c3c(O)cc(O[C@@H]4O[C@H](CO)[C@@H](O)[C@H](O)[C@H]4O[C@@H]4O[C@@H](C)[C@H](O)[C@@H](O)[C@H]4O)cc3O2)cc1 [Poncirin, poncirin]", "N-NH3 concentration / mg/L": 159.33}
